Listing of entries alongside the reported composite z-score.
Target: Streptavidin (Streptomyces avidinii)
Assay: compounds binding control protein streptavidin – biophysical, small-molecule microarray, 635/667 nm fluorescence, artefact control for SMM compound annotation, primary screen (AID 1147);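 note: signal reflects streptavidin binding to arrayed compounds as a control protein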
Conditions: higher = more signal

compound	composite z-score
COc1ccc([Si](C)(C)[C@H]2[C@H](CC(=O)N3CCC[C@H]3CO)O[C@@]3(C(=O)N(Cc4ccc(N5C(=O)c6cccc7cccc5c67)cc4)c4ccccc43)[C@@H]2C)cc1	0.197
COC(=O)[C@@]1(Cc2ccc(OC)cc2)[C@H]2c3cc(C(=O)N(C)C)n(Cc4cc(F)c(F)c(F)c4)c3C[C@H]2CN1C(=O)c1ccccc1	1.63
COCCCNC(=O)[C@]1(CCS(=O)(=O)c2ccccc2)N=C(c2ccc(OCCCO)cc2)O[C@@H]1c1ccccc1	1.43
CC(C)C(CO)N1C(=O)[C@@H]2[C@H]3C(=O)OCC=C[C@H]3OC23C=CCN(Cn2nnc4ccccc42)C(=O)[C@@H]13 (stereo partly specified)	-1.05
COCCOC(=O)N1C(=O)[C@@]2(c3cc(C#CCNC(N)=O)ccc31)[C@H](C(N)=O)[C@H]1C(=O)O[C@H](c3ccccc3)[C@H](c3ccccc3)N1[C@@H]2c1ccc(OCCO)cc1	0.668
C=CCOC(=O)[C@@H]1[C@H]2C(=O)O[C@H](c3ccccc3)[C@H](c3ccccc3)N2[C@H](c2ccc(OCCOC(=O)[C@@H]3C[C@@H]4C(=O)N[C@@H](CCCCNC(C)=O)C(=O)N4[C@@H]3c3ccc(O)cc3)cc2)[C@@]12C(=O)Nc1ccc(I)cc12	-0.0068

Taken from PubChem BioAssay.
